# MEASURED TARGET: T1, RBM5 RRM1-ZnF1S (human, UniProt P52756 94-210, C191G)
# T1 sequence: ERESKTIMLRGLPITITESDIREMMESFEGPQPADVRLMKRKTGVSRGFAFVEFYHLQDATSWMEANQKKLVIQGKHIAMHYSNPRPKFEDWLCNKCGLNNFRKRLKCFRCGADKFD
# EXPERIMENTAL DETAILS: ITC; ITC: 20 mM MES pH 6.5, 100 mM NaCl, 2 mM BME, 25 C; NMR: 20 mM MES pH 6.5, 100 mM (single RRMs) or 400 mM (multidomain) NaCl, 1 mM DTT, 298 K
# CONDITION SUMMARY: protein: recombinant
MEASURED METRIC: Kd

> print(dat)
                           binder  endpoint.result
1  UGGCUCUUCUCU (ssRNA) [GGCU_12]           263 nM
